This listing pairs compounds with measured Papp A→B.
Test: Permeability from apical to basolateral side of Caco-2 cell membrane
Assay type: ADME, cell-based
Conditions: human
quantity: Papp A→B (×10⁻⁶ cm/s)

[[record]]
compound_string = "CC(C)c1nnc2ccc(-c3[nH]cnc3-c3cc(F)ccc3F)cn12"
endpoint_value = 1

[[record]]
compound_string = "CC(C)c1nnc2ccc(-c3c[nH]nc3-c3cc(F)ccc3F)cn12"
endpoint_value = 6

[[record]]
compound_string = "CC(C)c1nnc2ccc(-c3ocnc3-c3cc(F)ccc3F)cn12"
endpoint_value = 43

[[record]]
compound_string = "CC(C)c1nnc2ccc(-c3cnoc3-c3cc(F)ccc3F)cn12"
endpoint_value = 41


----------
Test: Plasma clearance in rat
Format: ADME, organism-based
quantity: clearance

[[record]]
compound_string = "CC(C)(C)c1nnc2ccc(-c3ocnc3-c3cc(F)c(F)cc3F)cn12"
endpoint_value = "3 mL/min/kg"

[[record]]
compound_string = "CC(C)c1nnc2ccc(-c3ocnc3-c3ccc(F)c(Cl)c3)cn12"
endpoint_value = "17 mL/min/kg"

[[record]]
compound_string = "CC(C)c1nnc2ccc(-c3ocnc3-c3cccc(Cl)c3)cn12"
endpoint_value = "17 mL/min/kg"

[[record]]
compound_string = "CC(C)c1nnc2ccc(-c3ocnc3-c3ccc(F)cc3)cn12"
endpoint_value = "12 mL/min/kg"


----------
This listing pairs molecules with measured bioavailability.
Assay: Bioavailability in rat
Assay type: ADME, organism-based
Conditions: in vivo
quantity: bioavailability

[[record]]
compound_string = "CC(C)c1nnc2ccc(-c3ocnc3-c3cccc(Cl)c3)cn12"
quantity = "bioavailability"
endpoint_value = "37%"

[[record]]
compound_string = "CC(C)c1nnc2ccc(-c3ocnc3-c3ccc(F)c(Cl)c3)cn12"
quantity = "bioavailability"
endpoint_value = "9.4%"

[[record]]
compound_string = "CC(C)c1nnc2ccc(-c3ocnc3-c3ccc(F)cc3)cn12"
quantity = "bioavailability"
endpoint_value = "85%"

[[record]]
compound_string = "CC(C)c1nnc2ccc(-c3ocnc3-c3cc(F)ccc3F)cn12"
quantity = "bioavailability"
endpoint_value = "58%"

[[record]]
compound_string = "CC(C)(C)c1nnc2ccc(-c3ocnc3-c3cc(F)c(F)cc3F)cn12"
quantity = "bioavailability"
endpoint_value = "54%"


----------
Biological target: Mitogen-activated protein kinase 14 (Homo sapiens)
Sequence (Q16539 whole entry): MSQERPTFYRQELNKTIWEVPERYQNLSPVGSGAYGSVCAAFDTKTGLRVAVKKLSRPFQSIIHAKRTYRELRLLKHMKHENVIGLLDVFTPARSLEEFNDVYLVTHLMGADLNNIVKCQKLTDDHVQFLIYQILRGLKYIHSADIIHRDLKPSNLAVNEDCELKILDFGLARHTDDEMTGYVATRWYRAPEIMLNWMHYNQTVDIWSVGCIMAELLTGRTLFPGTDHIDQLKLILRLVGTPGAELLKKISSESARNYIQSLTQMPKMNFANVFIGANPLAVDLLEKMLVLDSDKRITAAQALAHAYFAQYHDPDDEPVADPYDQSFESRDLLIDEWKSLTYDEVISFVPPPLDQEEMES
Experiment: Inhibition of p38alpha
// thresholds for IC50 classes: band 1: < 10 nM; band 2: ≥ 10 nM and < 20 nM; band 3: ≥ 20 nM

[[record]]
compound_string = "COc1ccccc1-c1nnc2ccc(-c3ocnc3-c3ccc(F)cc3)cn12"
category_label = "band 1"

[[record]]
compound_string = "CC(C)Nc1nnc2ccc(-c3ocnc3-c3ccc(F)cc3)cn12"
category_label = "band 1"

[[record]]
compound_string = "Fc1ccc(-c2ncoc2-c2ccc3nnc(N4CCOCC4)n3c2)cc1"
category_label = "band 2"

[[record]]
compound_string = "CN(C)c1nnc2ccc(-c3ocnc3-c3ccc(F)cc3)cn12"
category_label = "band 2"

[[record]]
compound_string = "c1ccc(-c2ncoc2-c2ccc3nnc(-c4ccno4)n3c2)cc1"
category_label = "band 3"

[[record]]
compound_string = "CC(C)(O)c1nnc2ccc(-c3ocnc3-c3cc(F)ccc3F)cn12"
category_label = "band 3"

[[record]]
compound_string = "CCc1nnc2ccc(-c3ocnc3-c3ccc(F)cc3)cn12"
category_label = "band 3"

[[record]]
compound_string = "CC(C)c1nnc2ccc(-c3ocnc3-c3ccc(Cl)cc3Cl)cn12"
category_label = "band 1"

[[record]]
compound_string = "CC(C)c1nnc2ccc(-c3ocnc3-c3ccc(F)c(Cl)c3)cn12"
category_label = "band 2"

